Please provide measured Delta MST for the entries that follow.
tested on: Mus musculus; experiment: Mean survival time against trophozoite induced Plasmodium berghei in mice minus control was evaluated at a dose 640 mg/kg.; format: functional
Answer with a number only, understood to be in days.

### Prompt Request body: readout Delta MST, system Mus musculus, query CN(Cc1ccc(C(F)(F)F)cc1)c1ccc2nc(N)nc(N)c2n1 . Return the value.
### Response 2.5

### Prompt Record: CN(Cc1ccc(Cl)cc1)c1ccc2nc(N)nc(N)c2n1
### Response 1.3

### Prompt // repeat for CC(c1ccc(Cl)c(Cl)c1)N(C)c1ccc2nc(N)nc(N)c2n1 (centres undefined) and report
### Response 3.9

### Prompt One more molecule: CCN(Cc1ccc(Cl)cc1)c1ccc2nc(N)nc(N)c2n1
### Response 1.1

---

test system: Mus musculus; experiment: Mean survival time against trophozoite induced Plasmodium berghei in mice minus control was evaluated at a dose 40 mg/kg.; type: functional
Mark 1.0 only when Delta MST stays strictly below 2 days. Values equal to the cut-off are 0.0.

### Prompt I wonder whether Nc1nc(N)c2nc(N3CCCCC3Cc3ccccc3)ccc2n1 (configuration not stated) has Delta MST below 2 days. Can you tell?
### Response 0.0

### Prompt Input Nc1nc(N)c2nc(NCc3ccc(Cl)c(Cl)c3)ccc2n1
### Response 1.0

### Prompt Continue with Nc1nc(N)c2nc(N3CCCCC3Cc3ccc(Cl)cc3)ccc2n1 (configuration not stated)
### Response 0.0

### Prompt Next entry: Nc1nc(N)c2nc(N3CCCCC3)ccc2n1
### Response 1.0

### Prompt Now give it for CC(c1ccc(Cl)c(Cl)c1)N(C)c1ccc2nc(N)nc(N)c2n1 (configuration not stated) too.
### Response 1.0

### Prompt Let us now turn to CCN(Cc1ccc(Cl)cc1)c1ccc2nc(N)nc(N)c2n1
### Response 1.0

### Prompt And then CN(Cc1cccc(Br)c1)c1ccc2nc(N)nc(N)c2n1 , what is it?
### Response 0.0

---

Hi there, I'd appreciate the recorded Delta MST for every entry that follows.
test system: Mus musculus; test: Mean survival time against trophozoite induced Plasmodium berghei in mice minus control was evaluated at a dose 2.5 mg/kg.; assay type: functional
Dear colleague, please return just the value in days, with no unit written.

### Prompt Identify the measured Delta MST of CC#N.CC(C)N(Cc1ccc(Cl)cc1)c1ccc2nc(N)nc(N)c2n1 for Mus musculus.
### Response 6.5

### Prompt # repeat for CCCN(Cc1ccc(Cl)cc1)c1ccc2nc(N)nc(N)c2n1
### Response 8.1

### Prompt // next record Nc1nc(N)c2nc(N(C=O)Cc3ccc(Cl)c(Cl)c3)ccc2n1
### Response 5.3

### Prompt Next up: CN(Cc1ccc(Cl)c(Cl)c1)c1ccc2nc(N)nc(N)c2n1
### Response 4.3

### Prompt Next entry: CCc1nc(N)nc(N)c1-c1ccc(Cl)cc1 [PYRIMETHAMINE]
### Response 4.7
